- study_target: UniProt P04062
- Sequence (P04062 40-536): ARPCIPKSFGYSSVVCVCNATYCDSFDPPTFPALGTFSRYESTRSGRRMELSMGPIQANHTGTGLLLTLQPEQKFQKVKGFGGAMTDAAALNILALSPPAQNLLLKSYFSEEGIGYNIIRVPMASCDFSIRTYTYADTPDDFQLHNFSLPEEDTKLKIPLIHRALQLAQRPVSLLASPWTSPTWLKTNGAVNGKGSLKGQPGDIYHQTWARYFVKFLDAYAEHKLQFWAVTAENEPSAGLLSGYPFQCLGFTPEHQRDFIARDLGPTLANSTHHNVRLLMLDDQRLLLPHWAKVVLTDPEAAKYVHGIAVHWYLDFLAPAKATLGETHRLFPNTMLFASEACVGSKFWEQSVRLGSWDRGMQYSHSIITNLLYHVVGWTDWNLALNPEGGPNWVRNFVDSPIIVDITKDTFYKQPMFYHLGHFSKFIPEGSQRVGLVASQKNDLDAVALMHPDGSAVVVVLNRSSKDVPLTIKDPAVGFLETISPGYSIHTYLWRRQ
- test_summary: Glucocerebrosidase (Gcase) activation assay, 4-methylumbelliferyl-beta-D-glucopyranoside substrate, with saposin C
- Assay type: biochemical
- measurement_conditions: 0.1 μM test compound; read-out: Percent Gcase Activation 0.1 μM Test Compound
test_readout: activation at 0.1 µM

Lab note: measured activation at 0.1 µM of COc1cccc(-c2cc(C)n3cnc(C(=O)N[C@@H](C)C4CC4)c3n2)n1 [III-98] was 10 to 20%

Look at each molecule and report its activation at 0.1 µM.
1. Cc1cc(-c2cncnc2)nc2c(C(=O)NC(C)(C)C3CC3)ncn12 [III-57]
2. Cc1cc(-c2ccccn2)nc2c(C(=O)NC(C)C3CC3)ncn12 (stereo not shown) [III-44]
3. Cc1cc(-c2ncccn2)nc2c(C(=O)NC(C)(C)C3CC3)ncn12 [III-95]

RESULT:
1: < 10%; 2: < 10%; 3: < 10%
